Target of assay: 3-hydroxy-3-methylglutaryl-coenzyme A reductase (Rattus norvegicus)
Sequence (P51639 whole entry): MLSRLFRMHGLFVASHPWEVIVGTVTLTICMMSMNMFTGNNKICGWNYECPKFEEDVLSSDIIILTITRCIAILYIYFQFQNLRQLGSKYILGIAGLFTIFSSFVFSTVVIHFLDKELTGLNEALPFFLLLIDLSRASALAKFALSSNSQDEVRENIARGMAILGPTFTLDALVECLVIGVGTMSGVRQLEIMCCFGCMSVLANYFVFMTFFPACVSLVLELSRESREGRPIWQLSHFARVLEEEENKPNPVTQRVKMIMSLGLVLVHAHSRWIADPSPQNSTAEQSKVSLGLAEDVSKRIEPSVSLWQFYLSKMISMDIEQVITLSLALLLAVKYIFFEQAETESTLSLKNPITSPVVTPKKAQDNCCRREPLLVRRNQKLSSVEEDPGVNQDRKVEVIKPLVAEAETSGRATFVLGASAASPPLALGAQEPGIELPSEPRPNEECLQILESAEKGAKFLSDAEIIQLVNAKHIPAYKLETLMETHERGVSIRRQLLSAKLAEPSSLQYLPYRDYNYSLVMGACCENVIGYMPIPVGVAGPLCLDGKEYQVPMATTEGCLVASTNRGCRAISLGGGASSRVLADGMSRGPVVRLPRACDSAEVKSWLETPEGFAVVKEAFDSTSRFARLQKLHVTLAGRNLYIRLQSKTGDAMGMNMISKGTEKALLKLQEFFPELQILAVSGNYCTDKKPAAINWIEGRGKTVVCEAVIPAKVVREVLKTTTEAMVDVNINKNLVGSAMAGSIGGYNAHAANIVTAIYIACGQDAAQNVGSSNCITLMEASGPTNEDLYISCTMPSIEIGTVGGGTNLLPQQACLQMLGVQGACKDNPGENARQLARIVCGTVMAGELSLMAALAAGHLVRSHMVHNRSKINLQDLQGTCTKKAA
pIC50: −log10 of the molar value.
Attribute measured: pIC50

Recorded pIC50 for CC(C)[C@@H](O)C(=O)NCCC(=O)NCCNC(=O)C[C@@H](O)CC(=O)O on 3-hydroxy-3-methylglutaryl-coenzyme A reductase (Rattus norvegicus) was < 3.00
